# half-life values compiled below
Run Description: Stability of the compound in human Caco2 cell homogenate assessed as half life by LC-MS/MS analysis
Format: ADME, Colon
Condition Label: Caco-2 cell homogenate
Non-standard residues stand in square brackets, D forms with d. Residues, ends and D or L forms follow the SMILES beside them. Gly(decyl) = CCCCCCCCCC[C@H](N)C(=O)O; Aoc(2) = CCCCCC[C@H](N)C(=O)O
Parameter Measured: half-life (min)

| Molecule | Output Unit | Numeric Readout |
| --- | --- | --- |
| CCCCCC[C@H](N)C(=O)N[C@@H](Cc1ccc(O)cc1)C(=O)NCC(=O)NCC(=O)N[C@@H](Cc1ccccc1)C(=O)N[C@@H](CC(C)C)C(N)=O | min | 31.7 |
| CCCCCCCCCC[C@H](N)C(=O)N[C@@H](Cc1ccc(O)cc1)C(=O)NCC(=O)NCC(=O)N[C@@H](Cc1ccccc1)C(=O)N[C@@H](CC(C)C)C(N)=O (H-[Gly(decyl)]YGGFL-NH2) | min | 14.7 |
| CCCCCC[C@H](NC(C)=O)C(=O)N[C@@H](Cc1ccc(O)cc1)C(=O)NCC(=O)NCC(=O)N[C@@H](Cc1ccccc1)C(=O)N[C@@H](CC(C)C)C(N)=O (Ac-[Aoc(2)]YGGFL-NH2) | min | 83 |
| CCCCCCCCCC[C@H](NC(=O)[C@H](CC(C)C)NC(=O)[C@H](Cc1ccccc1)NC(=O)CNC(=O)CNC(=O)[C@@H](N)Cc1ccc(O)cc1)C(N)=O (H-YGGFL[Gly(decyl)]-NH2) | min | 16.4 |
| CCCCCCCCCC[C@H](NC(C)=O)C(=O)N[C@@H](Cc1ccc(O)cc1)C(=O)NCC(=O)NCC(=O)N[C@@H](Cc1ccccc1)C(=O)N[C@@H](CC(C)C)C(N)=O (Ac-[Gly(decyl)]YGGFL-NH2) | min | 27 |
| CCCCCCCCCC[C@H](NC(=O)[C@H](CC(C)C)NC(=O)[C@H](Cc1ccccc1)NC(=O)CNC(=O)CNC(=O)[C@H](Cc1ccc(O)cc1)NC(C)=O)C(N)=O (Ac-YGGFL[Gly(decyl)]-NH2) | min | 18.4 |
| CCCCCC[C@H](NC(=O)[C@H](CC(C)C)NC(=O)[C@H](Cc1ccccc1)NC(=O)CNC(=O)CNC(=O)[C@@H](N)Cc1ccc(O)cc1)C(N)=O (H-YGGFL[Aoc(2)]-NH2) | min | 5.4 |
| CCCCCC[C@H](NC(=O)[C@H](CC(C)C)NC(=O)[C@H](Cc1ccccc1)NC(=O)CNC(=O)CNC(=O)[C@H](Cc1ccc(O)cc1)NC(C)=O)C(N)=O (Ac-YGGFL[Aoc(2)]-NH2) | min | 13.8 |
